Assay Name: Apparent permeability across basolateral to apical side in dog MDR1-deficient MDCK cells expressing human MDR1 at 3 uM by LC-MS/MS analysis
Assay type: ADME, cell-based, Canis lupus familiaris
Recorded Endpoint: Papp (×10⁻⁶ cm/s)
Hi! Could you send only the number? It should be in ×10⁻⁶ cm/s, unit omitted.

**Q:** Item `CCc1ccccc1-c1ccc(C(=O)NC[C@@H](N)C(=O)O)s1` has what recorded Papp?
**A:** 1.4

**Q:** Param item = `N[C@H](CNC(=O)c1cc(Br)c(-c2ccccc2Br)s1)C(=O)O` ; retrieve measured Papp.
**A:** 7.4

**Q:** Requested field: Papp. Item: `N[C@H](CNC(=O)c1ccc(-c2ccccc2Br)s1)C(=O)O`
**A:** 0.88

**Q:** May I ask what Papp has been recorded for `COC(=O)c1ccccc1-c1c2ccc(=N)cc-2oc2cc(N)ccc12.Cl` ?
**A:** 5.7

**Q:** Any idea what its Papp is? The molecule is `CC(C)OC(=O)[C@H](N)CNC(=O)c1ccc(-c2ccccc2Br)s1`
**A:** 89.6

**Q:** Item `N[C@H](CNC(=O)c1cc(Br)c(-c2ccccc2F)s1)C(=O)O` has what recorded Papp?
**A:** 2.2

**Q:** Looking for the measured Papp of `CCc1ccccc1-c1cccc2[nH]c(C(=O)NC[C@@H](N)C(=O)O)cc12` , can you help?
**A:** 7.4

---

I'd appreciate it if you could supply t1/2 values for the items below.
Assay Name: Metabolic stability in human liver microsomes assessed as half life at 1 uM incubated for 5 mins in presence of NADPH by LC-MS/MS analysis
Assay type: ADME, Microsome

**Q:** For the compound `CC(C)OC(=O)[C@H](N)CNC(=O)c1ccc(-c2ccccc2Br)s1` , what t1/2 is on record?
**A:** 0.367 h

**Q:** Need t1/2, item `N[C@H](CNC(=O)c1cc(Br)c(-c2ccccc2F)s1)C(=O)O`
**A:** > 2 h

**Q:** Record request: t1/2 value, item `N[C@H](CNC(=O)c1ccc(-c2ccccc2Br)s1)C(=O)O`
**A:** > 2 h

**Q:** // query t1/2 value for entry `N[C@H](CNC(=O)c1cc(Br)c(-c2ccccc2Br)s1)C(=O)O`
**A:** > 2 h

**Q:** Returns the measured t1/2 for the input compound. Input: `CCc1ccccc1-c1ccc(C(=O)NC[C@@H](N)C(=O)O)s1`
**A:** > 2 h

**Q:** Query: t1/2; subject: `CCc1ccccc1-c1cccc2[nH]c(C(=O)NC[C@@H](N)C(=O)O)cc12`
**A:** > 2 h

---

Target Entity: Glutamate NMDA receptor; Grin1/Grin2a (Rattus norvegicus, UniProt P35439+Q00959)
Sequence (Q00959 whole entry, other chains not shown): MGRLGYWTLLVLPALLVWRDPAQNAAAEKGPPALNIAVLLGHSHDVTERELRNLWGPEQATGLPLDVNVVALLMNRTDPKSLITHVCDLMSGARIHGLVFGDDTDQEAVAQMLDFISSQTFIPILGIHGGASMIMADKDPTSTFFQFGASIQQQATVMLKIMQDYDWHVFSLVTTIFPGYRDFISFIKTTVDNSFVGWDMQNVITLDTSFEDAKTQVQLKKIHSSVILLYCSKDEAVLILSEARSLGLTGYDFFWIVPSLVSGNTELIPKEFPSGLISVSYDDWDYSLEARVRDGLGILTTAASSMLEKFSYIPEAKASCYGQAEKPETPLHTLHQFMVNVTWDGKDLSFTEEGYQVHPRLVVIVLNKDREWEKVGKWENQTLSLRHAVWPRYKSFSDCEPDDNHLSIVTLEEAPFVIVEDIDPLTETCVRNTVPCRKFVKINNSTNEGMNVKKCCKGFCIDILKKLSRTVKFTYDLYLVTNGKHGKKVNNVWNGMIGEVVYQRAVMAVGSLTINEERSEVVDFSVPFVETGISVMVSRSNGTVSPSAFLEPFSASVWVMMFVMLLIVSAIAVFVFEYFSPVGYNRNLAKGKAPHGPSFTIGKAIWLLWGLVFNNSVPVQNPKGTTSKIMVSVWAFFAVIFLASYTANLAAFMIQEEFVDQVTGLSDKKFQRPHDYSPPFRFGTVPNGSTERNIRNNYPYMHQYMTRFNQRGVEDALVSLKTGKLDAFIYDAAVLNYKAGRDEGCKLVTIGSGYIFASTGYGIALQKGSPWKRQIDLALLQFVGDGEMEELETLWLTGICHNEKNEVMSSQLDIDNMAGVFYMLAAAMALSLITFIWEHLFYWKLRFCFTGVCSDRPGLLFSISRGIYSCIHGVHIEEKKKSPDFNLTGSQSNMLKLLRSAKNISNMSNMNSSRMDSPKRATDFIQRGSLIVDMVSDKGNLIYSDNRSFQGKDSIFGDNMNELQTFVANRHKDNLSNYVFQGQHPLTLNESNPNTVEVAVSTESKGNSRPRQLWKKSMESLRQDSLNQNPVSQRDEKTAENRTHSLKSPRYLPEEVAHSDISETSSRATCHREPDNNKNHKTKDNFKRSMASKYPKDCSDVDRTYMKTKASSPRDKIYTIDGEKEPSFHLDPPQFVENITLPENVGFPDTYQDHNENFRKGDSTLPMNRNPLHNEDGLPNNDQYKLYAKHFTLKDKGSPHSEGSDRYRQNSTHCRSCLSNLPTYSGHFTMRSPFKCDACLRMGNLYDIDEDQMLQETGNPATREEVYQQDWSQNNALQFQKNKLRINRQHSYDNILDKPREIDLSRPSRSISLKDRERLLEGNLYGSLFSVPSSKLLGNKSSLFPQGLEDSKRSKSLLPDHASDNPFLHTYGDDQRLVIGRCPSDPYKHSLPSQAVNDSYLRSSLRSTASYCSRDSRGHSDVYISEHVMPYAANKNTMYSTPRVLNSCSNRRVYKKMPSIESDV
Assay Name: Partial agonist activity at recombinant rat GluN1/GluN2A NMDA receptor expressed in xenopus laevis oocytes in presence of L-glutamate by two-electrode voltage-clamp method
Provide the reported EC50 of each item.
Express it in nM; write the number only.

**Q:** # EC50 lookup, item `N[C@H](CNC(=O)c1ccc(-c2ccccc2C(F)(F)F)s1)C(=O)O`
**A:** 150

**Q:** Look up EC50 for this molecule: `N[C@H](CNC(=O)c1cc(Br)c(-c2ccccc2Br)s1)C(=O)O`
**A:** 18

**Q:** Name the recorded EC50 for `N[C@H](CNC(=O)c1ccc(-c2cccc(F)c2)s1)C(=O)O` .
**A:** 3730
